Data origin: the supplement of paper PMC9112550

Test system: Escherichia coli TOP10;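 note: peptides expressed intracellularly from a pBAD plasmid library in pooled LB shake-flask culture, induced with 0.3% L-arabinose, DNA abundance read by NGS, three biological replicates, DESeq2 with apeglm shrinkage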
Experiment: shrunken log2 fold change of peptide-encoding DNA abundance (4.5 h post-induction vs induction); higher = less antimicrobial activity (less host growth inhibition)
Conditions: time post-induction: 4.5 h; library: site-saturation at positions 5, 18, 19, 20
shrunken log2 fold change listing for selected sequences.
# output: bare number, no unit

# biopolymerSequence, experimentalTarget, parameterMeasured, reported
data = [
    ("RRIRHRPPRLPRPRPRPRMRPRP", "Escherichia coli TOP10", "shrunken log2 fold change", 0.39),
    ("RRIRTRPPRLPRPRPRPQMVPRP", "Escherichia coli TOP10", "shrunken log2 fold change", -0.37),
]

// switching to the query sequence
Item: RRIRGRPPRLPRPRPRPWVYPRP | System: Escherichia coli TOP10 | shrunken log2 fold change: -0.0165
